experiment: Example 2: cell number and viability; format: cell-based, Chinese hamster; conditions: Chinese hamster, cell line 25H9 (CHO cells), 31° C., 20 μM decitabine, day 0
measurementType: viability at 0 day, 20 μM (%)
Answers are plain numbers, in %.

Note viability at 0 day, 20 μM for the compound shown: Nc1ncn([C@H]2C[C@H](O)[C@@H](CO)O2)c(=O)n1 [decitabine, 5-aza-2′-deoxycytidine]
94.2

The measured values listed here are drawn from patent US6890736B1.
